biological target: human melanocortin 4 receptor (human, UniProt P32245 1-332); experiment: cell-based or functional assay
Sequence (P32245 whole entry): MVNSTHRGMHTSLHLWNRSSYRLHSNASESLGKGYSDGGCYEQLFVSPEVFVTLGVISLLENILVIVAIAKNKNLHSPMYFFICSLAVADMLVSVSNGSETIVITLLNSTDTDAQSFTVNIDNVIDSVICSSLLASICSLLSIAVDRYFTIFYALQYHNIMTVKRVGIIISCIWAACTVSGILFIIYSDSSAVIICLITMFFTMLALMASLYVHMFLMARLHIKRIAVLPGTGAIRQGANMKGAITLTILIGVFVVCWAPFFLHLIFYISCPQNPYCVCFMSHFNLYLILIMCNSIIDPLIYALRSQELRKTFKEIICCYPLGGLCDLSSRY
Positions of bridges follow the written chain, without caps; N, C: chain ends. Non-standard residues stand in square brackets, D forms with d. Thz = O=C(O)[C@@H]1CSCN1; Aib = CC(C)(N)C(=O)O
Recorded MC4R cAMP EC50, one value per entry.
measurement label: MC4R cAMP EC50 (nM)

- cyclo(C[Aib]P[dF]RWC[Aib]P[dF]RW) (disulfide 1-7; SMILES CC1(C)NC(=O)[C@@H]2CSSC[C@H](NC(=O)[C@H](Cc3c[nH]c4ccccc34)NC(=O)[C@H](CCCNC(=N)N)NC(=O)[C@@H](Cc3ccccc3)NC(=O)[C@@H]3CCCN3C1=O)C(=O)NC(C)(C)C(=O)N1CCC[C@H]1C(=O)N[C@H](Cc1ccccc1)C(=O)N[C@@H](CCCNC(=N)N)C(=O)N[C@@H](Cc1c[nH]c3ccccc13)C(=O)N2, also called c[c[Cys-Aib-Pro-D-Phe-Arg-Trp-Cys]-Aib-Pro-D-Phe-Arg-Trp]) [Chem. 39]: 1.54
- cyclo(C[Thz]H[dF]HWCADDAW) (disulfide 1-7; SMILES C[C@@H]1NC(=O)[C@H](CC(=O)O)NC(=O)[C@H](CC(=O)O)NC(=O)[C@H](C)NC(=O)[C@@H]2CSSC[C@H](NC(=O)[C@H](Cc3c[nH]c4ccccc34)NC1=O)C(=O)N1CSC[C@H]1C(=O)N[C@@H](Cc1c[nH]cn1)C(=O)N[C@H](Cc1ccccc1)C(=O)N[C@@H](Cc1c[nH]cn1)C(=O)N[C@@H](Cc1c[nH]c3ccccc13)C(=O)N2, also called c[c[Cys-THAZ-His-D-Phe-His-Trp-Cys]-Ala-Asp-Asp-Ala-Trp]) [Chem. 106]: 10.6
